Measured values drawn from patent US20230348589A1 for this set.

# tgt: A139 iCAPS (purified human CB1 with ICL3 native sequence replaced with BRIL, in lipid bilayer) (human) (UniProt P21554)
# Sequence (P21554 whole entry): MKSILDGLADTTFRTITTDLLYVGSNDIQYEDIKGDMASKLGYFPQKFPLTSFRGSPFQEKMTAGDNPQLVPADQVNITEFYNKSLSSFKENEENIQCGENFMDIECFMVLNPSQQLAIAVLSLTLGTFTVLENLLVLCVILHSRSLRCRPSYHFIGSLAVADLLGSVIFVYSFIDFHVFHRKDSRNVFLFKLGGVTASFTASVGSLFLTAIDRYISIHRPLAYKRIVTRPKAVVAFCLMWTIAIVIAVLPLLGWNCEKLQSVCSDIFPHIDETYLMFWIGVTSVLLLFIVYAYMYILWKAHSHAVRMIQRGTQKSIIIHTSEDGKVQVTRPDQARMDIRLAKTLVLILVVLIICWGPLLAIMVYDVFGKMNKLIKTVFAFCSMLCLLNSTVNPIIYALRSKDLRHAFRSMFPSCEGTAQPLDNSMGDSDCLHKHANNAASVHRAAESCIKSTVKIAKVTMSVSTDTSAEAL
# runDescription: ELISA, purified IgG on CB1 iCAPS
propertyLabel: EC50

EC50 for PA2LR3-P2D3 (chimeric) (antibody, human IgG1, kappa, V domains shown) VH: EVQLQQSGAELVRPGSSVKISCKASGYAFSYYWMNWVKQRPGQGLEWIGQIYPGDGDTNYNGKFKGKATLTADKSSSTAYMQLSSLTSEDSAVYFCARSHGSYFAYWGQGTLVTVSA VL: DIELAQSPASLAVSLGQRATISCRASESVDSYGNSFMHWYQQKPGQPPKLLIYLASNLESGVPARFSGSGSRADFTLTIDPVEADDAATYYCLQYASSPPTFGAGTKLEIKR ?
2.6 nM
